Target: T1, RBFOX1 RRM RbFoxmut (Fox-RRM*) (Homo sapiens, UniProt Q9NWB1 109-208, R118D;E147R;N151S;E152T)
T1 sequence: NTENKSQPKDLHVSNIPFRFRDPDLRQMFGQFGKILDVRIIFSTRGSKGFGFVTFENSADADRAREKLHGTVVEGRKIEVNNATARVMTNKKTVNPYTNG
Test: EMSA; HiTS-Eq, 1 nM pool, 10 min; buffer printed only for the single-RNA assays: 10 mM Tris pH 7.5, 150 mM NaCl, 3.4 mM EDTA, 0.001% NP-40, 30 C
Details: tags: His6 N-terminal (pET28a); label: 5' 32P
In all, about 16,000 sequences were measured (“ka relative to ugcaugu”: median about 0.096, highest 2% from about 0.35 on). Many of the other results were omitted from the sample, so the highest values are more common in it than they were.
MEASURED PARAMETER: binding signal

CGUAUGC (DNA:RNA) RNA: GGGAGACCGGAAUUCAGAUUGUCCCGUAUGCUUAAAUCCCGUCGUAGCCACCA DNA 1: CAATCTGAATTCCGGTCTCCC DNA 2: TGGTGGCTACGACGGGATT; 0.325 KA relative to UGCAUGU
GGAUGCU (DNA:RNA) RNA: GGGAGACCGGAAUUCAGAUUGUCCGGAUGCUUUAAAUCCCGUCGUAGCCACCA DNA 1: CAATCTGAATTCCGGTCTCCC DNA 2: TGGTGGCTACGACGGGATT; 0.142 KA relative to UGCAUGU
GUAUGCU (DNA:RNA) RNA: GGGAGACCGGAAUUCAGAUUGUCCGUAUGCUUUAAAUCCCGUCGUAGCCACCA DNA 1: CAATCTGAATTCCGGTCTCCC DNA 2: TGGTGGCTACGACGGGATT; 0.402 KA relative to UGCAUGU
UUAUGCU (DNA:RNA) RNA: GGGAGACCGGAAUUCAGAUUGUCCUUAUGCUUUAAAUCCCGUCGUAGCCACCA DNA 1: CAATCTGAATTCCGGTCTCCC DNA 2: TGGTGGCTACGACGGGATT; 0.13 KA relative to UGCAUGU
